biological target: OsWRKY34 (Oryza sativa, UniProt Q0JBA9 1-250); assay: protein-binding microarray (RPBM); PBS, 2% BSA, 51.3 ng/ul salmon testes DNA, 50 uM zinc acetate, 200 nM TF, 25 C, 1 h; high values mean tight binding; details: protein: recombinant; tags: N-terminal polyhistidine and DsRed monomer fusion (pET32a); label: CyDye5-dUTP incorporated in the synthesized complementary strand; 3' TTTTT single-stranded linker to array surface; dsDNA, one strand shown
Sequence (Q0JBA9 entry or part of it): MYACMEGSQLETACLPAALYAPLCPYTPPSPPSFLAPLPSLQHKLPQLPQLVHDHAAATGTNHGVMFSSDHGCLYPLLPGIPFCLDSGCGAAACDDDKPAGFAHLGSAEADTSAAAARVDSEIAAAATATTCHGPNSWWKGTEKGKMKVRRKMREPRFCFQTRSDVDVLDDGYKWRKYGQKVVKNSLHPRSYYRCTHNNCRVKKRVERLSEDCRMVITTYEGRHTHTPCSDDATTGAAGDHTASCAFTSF
Whole data set: some 68,000 sequences, median “fluorescence intensity (a.u.)” near 9,100, cut for the highest 2% near 16,000. Only a selection was taken, and the highest values are over-represented in it overall.
Below is a list of entries, each paired with its recorded binding signal value.
MEASURED_ENDPOINT: binding signal

SEQUENCE_INPUT | MEASURED_ENDPOINT | EXPERIMENTAL_VALUE
CGGGAGGGCGAGAGGGTTTTCGGAGCGGGAGGGGAAGATGCGGAGTCACCTAGTGCAG | binding signal | 15200 fluorescence intensity (a.u.)
GGCGGCGGCGGCAGGGGCGGCGGAGGGTTGGCGGCGGCGGCGGAGTCACCTAGTGCAG | binding signal | 11000 fluorescence intensity (a.u.)
GGGAGGGCAACTGAAGAGGAGTGGCGAGGGAGGGCTTTTGCGGAGTCACCTAGTGCAG | binding signal | 12200 fluorescence intensity (a.u.)
ATCGGGGTTGTTGTTTTTGTAGCTGCTTAAGCTTTTTATTCGGAGTCACCTAGTGCAG | binding signal | 14100 fluorescence intensity (a.u.)
AGAGATCGGGGTTTGGTTTTTTGGAGGGGAGAGCGGAGTGCGGAGTCACCTAGTGCAG | binding signal | 10200 fluorescence intensity (a.u.)
CCGCCGCCCACCTCATGCCTTGCGCGGTGCCCGTGAGAGACGGAGTCACCTAGTGCAG | binding signal | 8250 fluorescence intensity (a.u.)
GGAGCGATGACGTTCTATACCTTCGGCCTTCGTTTGACCGCGGAGTCACCTAGTGCAG | binding signal | 10600 fluorescence intensity (a.u.)
GGAGGAGGAGCTAGGGTTTCGGATGGGAGGAGGAGGAGGGCGGAGTCACCTAGTGCAG | binding signal | 8800 fluorescence intensity (a.u.)
CGGAGAGGGAGGGGAGCTAGGGTTTTTCGGGGCGGGGATGCGGAGTCACCTAGTGCAG | binding signal | 27600 fluorescence intensity (a.u.)

* * *

molecular target: OsWRKY34 (Oryza sativa, UniProt Q0JBA9 1-250); experiment: protein-binding microarray (RPBM); PBS, 2% BSA, 51.3 ng/ul salmon testes DNA, 50 uM zinc acetate, 200 nM TF, 25 C, 1 h; high values mean tight binding; conditions: protein: recombinant; tags: N-terminal polyhistidine and DsRed monomer fusion (pET32a); label: CyDye5-dUTP incorporated in the synthesized complementary strand; 3' TTTTT single-stranded linker to array surface; dsDNA, one strand shown
In all, about 68,000 sequences were measured (“fluorescence intensity (a.u.)”: median about 9,100, highest 2% from about 16,000 on). What follows is part of a selection rich in the highest values, with near analogues and random picks from the rest.
MEASURED_ENDPOINT: binding signal

SEQUENCE_INPUT | EXPERIMENTAL_VALUE
ATATAGGTTACGGATTTGTCATTGGTCGTTGTATTCTTTTCGGAGTCACCTAGTGCAG | 10600 fluorescence intensity (a.u.)
ATTTTCGTGTTATTTTTGGTTCTGGTTGATTGATCGATTTCGGAGTCACCTAGTGCAG | 12900 fluorescence intensity (a.u.)
GCACTTATCGTTTATTTTCTTATAATTTATTTTATCATTGCGGAGTCACCTAGTGCAG | 8830 fluorescence intensity (a.u.)
TGCGGCTTTGATTTGCGGGGTTCACACACGAGTAATTGCACGGAGTCACCTAGTGCAG | 10900 fluorescence intensity (a.u.)
TAGAATTACATCTGATATACCGGTCTTACGCTCTTAGATTCGGAGTCACCTAGTGCAG | 8860 fluorescence intensity (a.u.)
CTAGGAGGAGGATTAGTTCTTGCGCATCGCTTCTGAGCTCCGGAGTCACCTAGTGCAG | 8200 fluorescence intensity (a.u.)
CTGCCGGCTGCTCAATTTATTCCCTTGCTGTTTCATTTCGCGGAGTCACCTAGTGCAG | 45500 fluorescence intensity (a.u.)
ATTGATTGATTGGTTGGTTGGTTGGTTGGGTTGATCGATGCGGAGTCACCTAGTGCAG | 20300 fluorescence intensity (a.u.)
TTTATTGTTGTTTTTGGGTTGGTTTGGTTTGATTCCGATGCGGAGTCACCTAGTGCAG | 9120 fluorescence intensity (a.u.)
GCATACATCTCTACTACCTGCATCTCCATCTCAAATCAAACGGAGTCACCTAGTGCAG | 10400 fluorescence intensity (a.u.)
TTACACGCCTAATCATCGAAAACCTAATCTTATGCTTTCTCGGAGTCACCTAGTGCAG | 8790 fluorescence intensity (a.u.)
GTGGTGGCGGTGGAGGTGGAGGTGGAGGCGCCGTGGTGCGCGGAGTCACCTAGTGCAG | 12600 fluorescence intensity (a.u.)
TACATCATCTAGTGTTGCAGCAGCAGTGTGTGTAAGAGGACGGAGTCACCTAGTGCAG | 28500 fluorescence intensity (a.u.)
GTGGTTGGTTGGTGCGGTTGCGGCGGGTGATCGAACGATGCGGAGTCACCTAGTGCAG | 12100 fluorescence intensity (a.u.)
AACCCACCTCTTTCGTTTTCCGCGCGTACGCTTTTCAAACCGGAGTCACCTAGTGCAG | 8710 fluorescence intensity (a.u.)
AACCCACCTATCTTGTTTTCCACGTGTACGCTTTTCAAACCGGAGTCACCTAGTGCAG | 19200 fluorescence intensity (a.u.)
GAGCATTGGGTTGGGCCTTCCTTTCTTGTATTCGGCTTCTCGGAGTCACCTAGTGCAG | 16500 fluorescence intensity (a.u.)
TTTGGTAAGATTTGAACGGTTGGTTGTATAGGTCATTGACCGGAGTCACCTAGTGCAG | 16900 fluorescence intensity (a.u.)
ATCGAATGGTTGGTTCGGTTTGGTTTTGATTGATCGATATCGGAGTCACCTAGTGCAG | 22300 fluorescence intensity (a.u.)

* * *

target: OsWRKY34 (Oryza sativa, UniProt Q0JBA9 1-250); assay: protein-binding microarray (RPBM); PBS, 2% BSA, 51.3 ng/ul salmon testes DNA, 50 uM zinc acetate, 200 nM TF, 25 C, 1 h; high values mean tight binding; settings: protein: recombinant; tags: N-terminal polyhistidine and DsRed monomer fusion (pET32a); label: CyDye5-dUTP incorporated in the synthesized complementary strand; 3' TTTTT single-stranded linker to array surface; dsDNA, one strand shown
In all, about 68,000 sequences were measured (“fluorescence intensity (a.u.)”: median about 9,100, highest 2% from about 16,000 on). The list comes from a sample in which the highest values are over-represented; it also holds close analogues and randomly drawn sequences.
Below is a list of entries, each paired with its recorded binding signal value.

SEQUENCE_INPUT | binding signal
GGTTCTTTGTTTCCGTTTGCTTTACCATTTTTGTTCCTTTCGGAGTCACCTAGTGCAG | 10000 fluorescence intensity (a.u.)
TTTGACGCCGTTGACTTTTTTAAAAATGTTTGACCGTTCACGGAGTCACCTAGTGCAG | 25100 fluorescence intensity (a.u.)
TGCTTGTACAGTTTCCGGTTTCTTTGCCATTTCGTTTACACGGAGTCACCTAGTGCAG | 20000 fluorescence intensity (a.u.)
ATCTATGTTTTTCTGCGGGCCGGGTTGGTTTGTTTCCTACCGGAGTCACCTAGTGCAG | 10300 fluorescence intensity (a.u.)
GGTTTCCGTGGTGGGCCGGTTTGGGCTTTTCTTTTTTACACGGAGTCACCTAGTGCAG | 18500 fluorescence intensity (a.u.)
TTTCCTTTACTTTGGTGGTTCTTTTTTTTTTCTTTGTTTCCGGAGTCACCTAGTGCAG | 11400 fluorescence intensity (a.u.)
GCTTGCAGGGCTTGGTTGTTTCTTCTTCCGTTTTTTTTTACGGAGTCACCTAGTGCAG | 13600 fluorescence intensity (a.u.)
AATCGCCGTTCTAGCTTTTTGGTCTTGGTCTTTTTTTATCCGGAGTCACCTAGTGCAG | 21400 fluorescence intensity (a.u.)
GCTTGCTTTGTCACATGCAGTTTTACACCTTTTATTTCTCCGGAGTCACCTAGTGCAG | 10400 fluorescence intensity (a.u.)

* * *

Below is a list of entries, each paired with its recorded binding signal value.
molecular target: OsWRKY34 (Oryza sativa, UniProt Q0JBA9 1-250); assay: protein-binding microarray (RPBM); PBS, 2% BSA, 51.3 ng/ul salmon testes DNA, 50 uM zinc acetate, 200 nM TF, 25 C, 1 h; high values mean tight binding; details: protein: recombinant; tags: N-terminal polyhistidine and DsRed monomer fusion (pET32a); label: CyDye5-dUTP incorporated in the synthesized complementary strand; 3' TTTTT single-stranded linker to array surface; dsDNA, one strand shown
The full ranking holds about 68,000 sequences; the median of “fluorescence intensity (a.u.)” is about 9,100, and the highest 2% start at about 16,000. The sample as a whole holds a higher share of the highest values than the screen did.
MEASURED_ENDPOINT: binding signal

SEQUENCE_INPUT | EXPERIMENTAL_VALUE
ATCCATCCGAGCTCTCTCTCTCTCTCTGTCTTCTCTCTACCGGAGTCACCTAGTGCAG | 10700 fluorescence intensity (a.u.)
GTTTTTCATATTTGACGATCAAACGGTGGTTTTAAAACTTCGGAGTCACCTAGTGCAG | 8140 fluorescence intensity (a.u.)
GATCCGACTCCTACTTCTAACGTAGATTTTCGGCCTTTATCGGAGTCACCTAGTGCAG | 8370 fluorescence intensity (a.u.)
TATGGTATTTGGGTTAAAGAACGAAAATCGAACTCGCTGTCGGAGTCACCTAGTGCAG | 8160 fluorescence intensity (a.u.)
GGTGGGTTTCGTGGTACGGCTCGCTCTCGTGGTGGGGAATCGGAGTCACCTAGTGCAG | 19700 fluorescence intensity (a.u.)
GAGCGGGGAGGCGGCGGATCTAGGGTTTGGTTGGGTTTTTCGGAGTCACCTAGTGCAG | 15300 fluorescence intensity (a.u.)
TCCTCTCTCTCTCTCTCTCTCTCTCCTCCTTTGGAGTTGTCGGAGTCACCTAGTGCAG | 10500 fluorescence intensity (a.u.)
TTCACAATGTAAGCCATTCTAGCATTTTCCATATTTATATCGGAGTCACCTAGTGCAG | 8240 fluorescence intensity (a.u.)
TCGTTTGGTTGGCGGGAGTTTTAAGAGGGATTAGGAGTTTCGGAGTCACCTAGTGCAG | 9020 fluorescence intensity (a.u.)
